# TGI per record follows
system: MDA-MB-231 breast; assay: NCI tumour cell line growth inhibition, 48 h
MEASURED ATTRIBUTE: TGI

MOLECULE	REPORTED RESULT
CCNC(=S)N=Nc1c(O)[nH]c2ccc([N+](=O)[O-])cc12	> 100 µM
C[C@H](NC(=O)C(Cc1ccccc1)(Cc1ccc(O)cn1)NC(=O)c1ccccc1)c1ccccc1 (stereo not given in full)	29.4 µM
[Cl][Sn]([c]1ccccc1)([c]1ccccc1)[c]1ccccc1	0.54 µM
O=S(Nc1ccccc1)c1ccc(N2CCOCC2)cc1 (stereo not given)	> 100 µM
Cc1ccc(OCC2OC(n3cnc4nc(N)nc(Cl)c43)CC2Oc2ccc(C)cc2)cc1 (stereo not given)	> 100 µM
CCCC(=O)NC(Nc1ccc(S(=O)(=O)Nc2cc(C)on2)cc1)(C(=O)OCC)C(F)(F)F (stereo not given)	> 100 µM
Nc1ncnc2c1N=C(c1ccc3c(c1)OCO3)CC(c1ccc([N+](=O)[O-])cc1)N2 (stereo not given)	> 100 µM
CCOC(=O)c1nc2ccc(C(F)(F)F)cc2nc1Oc1cc(OC)c(OC)c(OC)c1	> 100 µM
CC1=C(c2cccc(O)c2)[C@H](c2ccc(OCCN3CC(CF)C3)cc2)Oc2ccc(O)cc21	17.4 µM
O=C(NCCCCCCCCCCCCNC(=O)Nc1cccc2ccccc12)Nc1cccc2ccccc12	35.9 µM
CSCCC(N)C(=O)NCCNc1ccc(NCCNC(=O)C(N)CCSC)c2c1C(=O)c1ccccc1C2=O (stereo not given)	2.81 µM
CC1(C)CC(O)C(C)(C)[C@@H](O)C1 (stereo not given in full)	> 100 µM
CN(C)c1nc(N)nc(CS)n1	> 100 µM
CCOP(=O)(/C=C\n1cc(C)c(=O)[nH]c1=O)OCC	> 100 µM
C=C1C(O)C2C(=C(CC)C13CC3)C(=O)C(C)(C)C2OC (stereo not given)	> 100 µM

====

# TGI per record follows
test system: EKVX NSCLC; experiment: NCI tumour cell line growth inhibition, 48 h

MOLECULE	TGI
N#C/C(=C\c1ccsc1)c1nc2ccccc2o1	> 100 µM
Nc1ccc(S(=O)(=O)c2ccc(NCN3C(=O)NC(=O)C(=O)C3=O)cc2)cc1	> 100 µM
O=C(/C=C/Sc1cc(C(F)(F)F)cc(C(F)(F)F)c1)c1ccc(Cl)cc1	30.5 µM
N/N=C(/C(=O)Nc1cccc(Cl)c1)C(C(=O)c1ccc(O)cc1O)C1OC(=O)c2ccccc21 (configuration not stated)	> 100 µM
COC(OC)[C@@H]1OC[C@H](n2cnc3c(N)ncnc32)[C@H]1O	> 100 µM
CCCCCCC[CH2][Sn]([CH2]CCCCCCC)([O]c1cccc2cccnc12)[O]c1cccc2cccnc12	7.18 µM
COC(C(=O)NN)c1ccccc1 (configuration not stated)	> 100 µM
O=C(NCCCCCCCCCCCCNC(=O)Nc1cccc2ccccc12)Nc1cccc2ccccc12	43.3 µM
COc1cc2c[n+](C)c3c4cc(OC)c(OC(C)C)cc4ccc3c2cc1OC	> 100 µM
C[n+]1cccc2c(=O)c3ccccc3oc21	> 100 µM
C=C[C@@H](C)[C@H](NS(=O)(=O)c1ccc(C)cc1)C(=O)OCC	> 100 µM
Cc1cc2c(C(C)C)c(O)c(O)cc2c(O)c1-c1c(C)cc2c(C(C)C)c(O)c(O)cc2c1O	68.6 µM
CCOc1ccc(N/C(=C(/C(Cl)=C(/Cl)N(CC)CC)[N+](=O)[O-])n2nnc3ccccc32)cc1	69.6 µM
COc1ccc2c3c1OC1C(=O)C=CC4(CC2)N(C)CCC314 (configuration not stated)	92.8 µM
C[N+](C)(C)c1ccc(C(N)C(=O)O)cc1 (configuration not stated)	> 100 µM
Cc1csc(NC23CC4CC(CC(C4)C2)C3)[n+]1C(P(=O)([O-])O)P(=O)(O)O (configuration not stated)	> 100 µM
O=[N+]([O-])c1ccc2sc(C=Nc3cnccn3)cc2c1	> 100 µM
COc1cc2ccc(=O)oc2cc1O	226 µM
O=C1C(Nc2ccc(Cl)cc2)=C(I)C(=O)c2ncccc21	3.32 µM
CCN(CC)N1C(=O)[N+](CC)(CC)N=C1[O-]	> 100 µM
CO/N=C1\CC(NC(=O)CNC(=O)OC(C)(C)C)c2ccsc21 (configuration not stated)	> 100 µM
CCNC(=S)N=Nc1c(O)[nH]c2ccc([N+](=O)[O-])cc12	> 100 µM
